Listing of recorded pIC50 by entry.
# subjectOfTest: JAK1 (Homo sapiens, UniProt P23458)
# Construct: endogenous in cells
# Sequence (P23458 whole entry): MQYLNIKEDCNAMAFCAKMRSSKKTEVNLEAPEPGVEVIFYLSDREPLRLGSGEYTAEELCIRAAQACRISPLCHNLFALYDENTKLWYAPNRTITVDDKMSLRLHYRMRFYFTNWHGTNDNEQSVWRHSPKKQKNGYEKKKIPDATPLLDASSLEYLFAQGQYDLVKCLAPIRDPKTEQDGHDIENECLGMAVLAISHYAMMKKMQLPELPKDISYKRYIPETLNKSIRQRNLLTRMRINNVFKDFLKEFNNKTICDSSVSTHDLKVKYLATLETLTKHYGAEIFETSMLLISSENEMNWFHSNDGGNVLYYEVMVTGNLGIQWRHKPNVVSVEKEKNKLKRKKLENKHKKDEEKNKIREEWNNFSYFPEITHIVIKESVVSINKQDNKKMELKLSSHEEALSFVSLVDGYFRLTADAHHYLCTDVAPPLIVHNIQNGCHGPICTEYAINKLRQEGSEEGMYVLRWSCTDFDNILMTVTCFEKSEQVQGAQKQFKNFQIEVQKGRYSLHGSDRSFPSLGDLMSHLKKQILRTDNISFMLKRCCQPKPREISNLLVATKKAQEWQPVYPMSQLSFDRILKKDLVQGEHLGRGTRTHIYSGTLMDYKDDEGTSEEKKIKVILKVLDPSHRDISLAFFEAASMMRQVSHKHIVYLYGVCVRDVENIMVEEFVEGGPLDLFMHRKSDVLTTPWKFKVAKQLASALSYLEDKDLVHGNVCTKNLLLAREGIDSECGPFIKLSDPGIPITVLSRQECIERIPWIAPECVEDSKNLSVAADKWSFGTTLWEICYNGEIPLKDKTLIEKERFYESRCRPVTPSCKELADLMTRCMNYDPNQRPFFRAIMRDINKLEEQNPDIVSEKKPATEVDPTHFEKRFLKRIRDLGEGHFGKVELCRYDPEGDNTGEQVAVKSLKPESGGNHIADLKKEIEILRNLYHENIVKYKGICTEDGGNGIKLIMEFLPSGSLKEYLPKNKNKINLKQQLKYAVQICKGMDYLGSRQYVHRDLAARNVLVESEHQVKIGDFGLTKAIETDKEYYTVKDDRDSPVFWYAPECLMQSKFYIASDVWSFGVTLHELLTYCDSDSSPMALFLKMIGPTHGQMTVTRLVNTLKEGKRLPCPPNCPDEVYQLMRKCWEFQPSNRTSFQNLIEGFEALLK
# assayInfo: Kinobeads assay, JAK1
# runConditions: mixed Molt4/Ramos lysate, read-out: Inhibition values (IC50) JAK1
pIC50: −log10 of the molar value.
measuredQuantity: pIC50

{"compound": "C[C@@H](CO)NC(=O)Cn1cc(Nc2ncc(Cl)c(N[C@H](CO)c3ccccc3F)n2)cn1", "measuredQuantity": "pIC50", "result": "6.00 to 7.00"}
{"compound": "CC(C)n1cc(Nc2ncc(Cl)c(N[C@H](CO)c3ccccc3F)n2)cn1", "measuredQuantity": "pIC50", "result": "5.00 to 6.00"}
{"compound": "COC[C@@H](Nc1nc(Nc2cnn(C)c2)ncc1Cl)c1ccccc1", "measuredQuantity": "pIC50", "result": "< 5.00"}
{"compound": "Cc1cnc(Nc2cnn(CC(F)F)c2)nc1NC(CO)c1c(F)cccc1F (stereo not shown)", "measuredQuantity": "pIC50", "result": "5.00 to 6.00"}

----------
Here, each record is paired with measured pIC50 data.
# subjectOfTest: JAK2 (Homo sapiens, UniProt O60674)
# Construct: endogenous in cells
# Sequence (O60674 whole entry): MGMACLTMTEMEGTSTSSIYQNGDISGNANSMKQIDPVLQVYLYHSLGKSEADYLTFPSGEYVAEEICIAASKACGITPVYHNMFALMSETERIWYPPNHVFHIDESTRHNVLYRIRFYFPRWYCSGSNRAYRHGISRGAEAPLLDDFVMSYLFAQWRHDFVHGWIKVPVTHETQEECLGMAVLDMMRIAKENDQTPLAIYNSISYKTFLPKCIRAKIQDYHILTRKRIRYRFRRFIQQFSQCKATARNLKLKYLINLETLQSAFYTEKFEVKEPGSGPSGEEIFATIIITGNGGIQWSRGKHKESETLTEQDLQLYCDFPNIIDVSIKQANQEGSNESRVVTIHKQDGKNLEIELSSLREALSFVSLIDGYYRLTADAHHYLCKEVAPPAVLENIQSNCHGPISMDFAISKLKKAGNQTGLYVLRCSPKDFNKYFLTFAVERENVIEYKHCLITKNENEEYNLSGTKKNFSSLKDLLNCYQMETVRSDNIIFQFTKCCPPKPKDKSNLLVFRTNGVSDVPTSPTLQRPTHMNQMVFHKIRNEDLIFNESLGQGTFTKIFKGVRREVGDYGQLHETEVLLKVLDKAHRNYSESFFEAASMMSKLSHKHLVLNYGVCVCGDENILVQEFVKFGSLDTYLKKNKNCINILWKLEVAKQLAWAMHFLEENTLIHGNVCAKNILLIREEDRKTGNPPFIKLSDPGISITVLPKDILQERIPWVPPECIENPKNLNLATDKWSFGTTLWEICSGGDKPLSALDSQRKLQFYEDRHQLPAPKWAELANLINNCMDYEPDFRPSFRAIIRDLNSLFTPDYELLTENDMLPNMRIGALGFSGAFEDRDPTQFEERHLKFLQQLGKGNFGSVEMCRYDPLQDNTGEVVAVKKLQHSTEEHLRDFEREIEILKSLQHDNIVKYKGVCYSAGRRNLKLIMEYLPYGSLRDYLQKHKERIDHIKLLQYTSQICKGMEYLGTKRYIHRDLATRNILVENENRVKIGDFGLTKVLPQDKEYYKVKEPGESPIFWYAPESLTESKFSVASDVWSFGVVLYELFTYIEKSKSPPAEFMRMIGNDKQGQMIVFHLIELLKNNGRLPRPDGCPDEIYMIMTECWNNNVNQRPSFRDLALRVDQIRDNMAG
# assayInfo: Kinobeads assay, JAK2
# runConditions: mixed Molt4/Ramos lysate, read-out: Inhibition values (IC50) JAK2
pIC50: −log10 of the molar value.

{"compound": "O=C(NC1CCCC1)[C@@H](Nc1nc(Nc2cnn(CCO)c2)ncc1Cl)c1ccccc1 [Compound 60]", "pIC50": "≤ 5.00"}
{"compound": "COCCNC(=O)[C@@H](Nc1nc(Nc2cnn(CCO)c2)ncc1Cl)c1ccccc1 [Compound 48]", "pIC50": "5.00 to 6.00"}
{"compound": "O=C(Cn1cc(Nc2ncc(Cl)c(N[C@H](CO)c3cccnc3)n2)cn1)N1CCOCC1 [Compound 104]", "pIC50": "5.00 to 6.00"}
{"compound": "O=C(Cn1cc(Nc2ncc(Cl)c(N[C@H](CO)c3ccccc3)n2)cn1)NC1CC1 [Compound 68]", "pIC50": "5.00 to 6.00"}
{"compound": "CN1CCC(n2cc(Nc3ncc(Cl)c(N[C@H](CO)c4ccccc4)n3)cn2)C1=O (some centres unmarked) [Compound 135]", "pIC50": "5.00 to 6.00"}
{"compound": "Cc1cnc(Nc2cnn(CC(F)F)c2)nc1N[C@H](CO)c1cc(F)cc(F)c1 [Compound 167]", "pIC50": "5.00 to 6.00"}
{"compound": "CNC(=O)Cn1cc(Nc2ncc(Cl)c(N[C@H](CO)c3cc(F)ccc3F)n2)cn1 [Compound 141]", "pIC50": "6.00 to 7.00"}
{"compound": "Cn1cc(Nc2ncc(Cl)c(N[C@@H](CO)c3ccccc3)n2)cn1 [Compound 54]", "pIC50": "≤ 5.00"}
{"compound": "COC[C@@H](Nc1nc(Nc2cnn(C)c2)ncc1Cl)c1ccccc1 [Compound 55]", "pIC50": "≤ 5.00"}
{"compound": "NC(=O)Cn1cc(Nc2ncc(Cl)c(N[C@H](CO)c3cc(F)cc(F)c3)n2)cn1 [Compound 144]", "pIC50": "6.00 to 7.00"}
{"compound": "CCn1cc(Nc2ncc(Cl)c(N[C@H](CO)c3ccccc3F)n2)cn1 [Compound 109]", "pIC50": "5.00 to 6.00"}
{"compound": "Cn1cc(Nc2ncc(Cl)c(NC(CO)Cc3ccccc3)n2)cn1 (centres unmarked) [Compound 14]", "pIC50": "5.00 to 6.00"}
{"compound": "Cn1cc(Nc2ncc(Cl)c(N[C@H](CO)c3ccccc3F)n2)cn1 [Compound 58]", "pIC50": "5.00 to 6.00"}
{"compound": "Cn1cc(Nc2ncc(Cl)c(NC(C(=O)O)c3ccccc3)n2)cn1 (centres unmarked) [Compound 18]", "pIC50": "5.00 to 6.00"}
{"compound": "NC(=O)Cn1cc(Nc2ncc(F)c(N[C@H](CO)c3cc(F)cc(F)c3)n2)cn1 [Compound 160]", "pIC50": "5.00 to 6.00"}
{"compound": "NC(=O)Cn1cc(Nc2ncc(Cl)c(N[C@H](CO)c3ccccc3F)n2)cn1 [Compound 78]", "pIC50": "5.00 to 6.00"}
{"compound": "COc1cccc([C@@H](CO)Nc2nc(Nc3cnn(CCO)c3)ncc2Cl)c1 [Compound 83]", "pIC50": "5.00 to 6.00"}

----------
# subjectOfTest: JAK3 (Homo sapiens)
# Construct: endogenous in cells; host or cells: Molt4 (ATCC CRL-1582) and Ramos (ATCC CRL-1596), mixed lysate 1:2
# Sequence (P52333 whole entry): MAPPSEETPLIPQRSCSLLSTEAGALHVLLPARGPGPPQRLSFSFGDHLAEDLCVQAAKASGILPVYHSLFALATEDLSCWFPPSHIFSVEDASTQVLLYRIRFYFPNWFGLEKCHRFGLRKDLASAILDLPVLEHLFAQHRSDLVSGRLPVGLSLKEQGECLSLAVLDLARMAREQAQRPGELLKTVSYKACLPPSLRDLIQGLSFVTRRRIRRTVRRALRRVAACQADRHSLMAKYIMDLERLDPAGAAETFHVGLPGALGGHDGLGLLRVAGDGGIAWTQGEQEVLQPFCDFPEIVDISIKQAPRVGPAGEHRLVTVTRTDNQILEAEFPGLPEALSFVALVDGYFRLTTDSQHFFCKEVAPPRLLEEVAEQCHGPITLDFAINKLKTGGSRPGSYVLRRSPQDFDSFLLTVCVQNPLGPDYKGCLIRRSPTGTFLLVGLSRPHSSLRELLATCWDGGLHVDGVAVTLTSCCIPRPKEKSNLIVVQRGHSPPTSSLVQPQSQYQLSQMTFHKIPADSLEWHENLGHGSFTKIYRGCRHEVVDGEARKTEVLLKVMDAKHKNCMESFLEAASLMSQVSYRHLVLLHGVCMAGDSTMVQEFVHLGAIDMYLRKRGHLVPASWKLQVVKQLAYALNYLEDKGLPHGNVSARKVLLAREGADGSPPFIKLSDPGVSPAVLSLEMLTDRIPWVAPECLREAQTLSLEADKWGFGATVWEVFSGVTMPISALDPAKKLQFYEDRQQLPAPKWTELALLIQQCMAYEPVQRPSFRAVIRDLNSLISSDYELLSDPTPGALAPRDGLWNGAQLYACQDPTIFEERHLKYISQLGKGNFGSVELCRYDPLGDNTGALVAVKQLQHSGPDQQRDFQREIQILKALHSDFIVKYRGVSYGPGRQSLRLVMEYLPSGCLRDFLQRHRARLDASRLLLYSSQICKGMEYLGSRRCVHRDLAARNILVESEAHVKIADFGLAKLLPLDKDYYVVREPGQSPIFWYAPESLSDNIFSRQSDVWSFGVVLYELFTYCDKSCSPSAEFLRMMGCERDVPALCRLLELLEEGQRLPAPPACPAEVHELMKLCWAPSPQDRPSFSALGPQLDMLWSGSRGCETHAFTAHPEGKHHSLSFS
# assayInfo: Kinobeads assay, JAK3
# Assay type: binding
# runConditions: mixed Molt4/Ramos lysate, read-out: Inhibition values (IC50) JAK3
pIC50: −log10 of the molar value.

{"molecule": "CCOC(=O)Cn1cc(Nc2ncc(Cl)c(N[C@H](CO)c3ccccc3)n2)cn1", "pIC50": "> 7.00"}
{"molecule": "Cn1cc(-c2cc(F)cc([C@@H](CO)Nc3nc(Nc4cnn(CCO)c4)ncc3F)c2)cn1", "pIC50": "6.00 to 7.00"}
{"molecule": "Cn1cc(Nc2ncc(F)c(N[C@H](CO)c3ccccc3)n2)cn1", "pIC50": "6.00 to 7.00"}
{"molecule": "CN(CC#N)C(=O)Cn1cc(Nc2ncc(Cl)c(N[C@H](CO)c3ccccc3)n2)cn1", "pIC50": "> 7.00"}
{"molecule": "O=C(NCCO)[C@@H](Nc1nc(Nc2cnn(CCO)c2)ncc1Cl)c1ccccc1", "pIC50": "> 7.00"}
{"molecule": "NC(=O)Cn1cc(Nc2ncc(Cl)c(NC(CO)c3ccccc3Cl)n2)cn1 (centres unmarked)", "pIC50": "> 7.00"}
{"molecule": "CCn1cc(Nc2ncc(Cl)c(N[C@H](CO)c3ccccc3OC)n2)cn1", "pIC50": "> 7.00"}
{"molecule": "CCC(Nc1nc(Nc2cnn(C)c2)ncc1Cl)c1ccccc1F (centres unmarked)", "pIC50": "6.00 to 7.00"}

----------
# subjectOfTest: JAK2 (Homo sapiens, UniProt O60674)
# Construct: endogenous in cells
# assayInfo: Kinobeads assay, JAK2
# runConditions: mixed Molt4/Ramos lysate, read-out: Inhibition values (IC50) JAK2
# Procedure: The compounds of the present invention as described in the previous examples were tested in a Kinobeads™ assay as described for ZAP-70 (WO-A 2007/137867). […] Bound proteins were then eluted and the presence of JAK1, JAK2, JAK3 and TYK2 was detected and quantified using specific antibodies in a dot blot procedure and the Odyssey infrared detection system. Dose response curves for individual kinases were generated and IC50 values calculated. […]

{"structureSmilesString": "OCCn1cc(Nc2ncc(F)c(N[C@H](CO)c3cc(F)cc(F)c3)n2)cn1", "IC50": "1 to 10 µM"}
{"structureSmilesString": "CCNC(=O)[C@@H](Nc1nc(Nc2cnn(C)c2)ncc1Cl)c1ccccc1", "IC50": "≥ 10 µM"}
{"structureSmilesString": "Cc1cnc(Nc2cnn(C)c2)nc1N[C@H](CO)c1cc(F)cc(F)c1", "IC50": "1 to 10 µM"}
{"structureSmilesString": "Cn1ccc(Nc2ncc(Cl)c(N[C@H](CO)c3ccccc3)n2)n1", "IC50": "≥ 10 µM"}
{"structureSmilesString": "Cn1cc(Nc2ncc(Cl)c(N[C@H](CO)c3cc(F)ccc3F)n2)cn1", "IC50": "0.1 to 1 µM"}

----------
# subjectOfTest: JAK1 (Homo sapiens)
# Construct: endogenous in cells
# assayInfo: Kinobeads assay, JAK1
# runConditions: mixed Molt4/Ramos lysate, read-out: Inhibition values (IC50) JAK1
pIC50: −log10 of the molar value.
Here, each record is paired with measured pIC50 data.
measuredQuantity: pIC50

{"molecule": "COc1ccccc1[C@@H](CO)Nc1nc(Nc2cnn(C(C)C)c2)ncc1Cl", "measuredQuantity": "pIC50", "result": "5.00 to 6.00"}
{"molecule": "COc1ccccc1[C@@H](CO)Nc1nc(Nc2cnn(CCO)c2)ncc1Cl", "measuredQuantity": "pIC50", "result": "6.00 to 7.00"}
{"molecule": "NC(=O)Cn1cc(Nc2ncc(Cl)c(N[C@H](CO)c3ccccn3)n2)cn1", "measuredQuantity": "pIC50", "result": "6.00 to 7.00"}
{"molecule": "Cn1cc(Nc2ncc(Cl)c(N[C@H](C(=O)NCCO)c3ccccc3)n2)cn1", "measuredQuantity": "pIC50", "result": "5.00 to 6.00"}
{"molecule": "O=C(Cn1cc(Nc2ncc(F)c(N[C@H](CO)c3ccccc3)n2)cn1)N1CCOCC1", "measuredQuantity": "pIC50", "result": "5.00 to 6.00"}
{"molecule": "OCCn1cc(Nc2ncc(Cl)c(NC(CO)c3cc(F)cc(F)c3)n2)cn1 (stereo not drawn)", "measuredQuantity": "pIC50", "result": "6.00 to 7.00"}
{"molecule": "OCCn1cc(Nc2ncc(Cl)c(NC(CO)Cc3ccccc3)n2)cn1 (stereo not drawn)", "measuredQuantity": "pIC50", "result": "6.00 to 7.00"}
{"molecule": "COCCNC(=O)[C@@H](Nc1nc(Nc2cnn(CCO)c2)ncc1Cl)c1ccccc1", "measuredQuantity": "pIC50", "result": "6.00 to 7.00"}
{"molecule": "Cn1cc(Nc2ncc(F)c(NC(CO)c3ccccc3)n2)cn1 (stereo not drawn)", "measuredQuantity": "pIC50", "result": "< 5.00"}
